Measured melting point, listed per entry for reference.

>>> print(df.to_string())
                                   compound  observed_result
0   COC(=O)c1sc2c(c1O)CN(C(=O)OC(C)(C)C)CC2    84.5 to 86 °C
1  COc1cc2c3c(c1)nc(SCc1ccc4ccccc4n1)n3CCC2      89 to 91 °C
2                  COc1c(NOCc2ccccc2)ccnc1C           130 °C
3  CCC1C(=O)c2cc(OCC(=O)O)c(C)c(C)c2C1=O (stereo not given)    187 to 193 °C
4  O=c1[nH]c(=O)n(C2CC(OCc3ccc(F)cc3)C(CO)O2)cc1F (stereo not given)    130 to 131 °C

INPUT: # melting point lookup, item `O=C(O)c1cc(-n2c(-c3ccc(O)cc3)cc3c2CCCC3)ccc1O`
OUTPUT: 214 to 217 °C

INPUT: Item: `Cc1cc2c(N3CCC(CCO)CC3)ccc(C#N)c2o1`
OUTPUT: 106 to 107 °C

INPUT: Item: `COc1cc(I)c(C(C)=NOCc2ccc([N+](=O)[O-])cc2)cc1O`
OUTPUT: 121 to 127 °C

INPUT: Item: `O=C(CCN1CCN(c2cccc(C(F)(F)F)c2)CC1)c1ccc2oc3ccc(C(=O)CCN4CCN(c5cccc(C(F)(F)F)c5)CC4)cc3c(=O)c2c1`
OUTPUT: 166 to 167 °C

INPUT: Item: `CCOC(=O)c1ccc2c(c1)sc1cc(Cl)ccc12`
OUTPUT: 120 to 122 °C
